# TGT: Tryptophan 2,3-dioxygenase (Homo sapiens, UniProt P48775)
# Sequence (P48775 whole entry, looked up): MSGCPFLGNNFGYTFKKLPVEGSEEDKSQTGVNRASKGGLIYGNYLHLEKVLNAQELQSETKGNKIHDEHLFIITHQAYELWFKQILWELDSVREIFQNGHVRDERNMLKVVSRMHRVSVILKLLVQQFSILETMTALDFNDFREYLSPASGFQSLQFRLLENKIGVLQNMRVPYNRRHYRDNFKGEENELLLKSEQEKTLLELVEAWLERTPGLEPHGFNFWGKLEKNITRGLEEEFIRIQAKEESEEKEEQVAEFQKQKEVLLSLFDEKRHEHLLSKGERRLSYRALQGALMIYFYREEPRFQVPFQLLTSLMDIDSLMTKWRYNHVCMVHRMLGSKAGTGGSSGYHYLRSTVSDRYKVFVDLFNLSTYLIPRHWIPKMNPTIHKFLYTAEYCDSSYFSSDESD
# ASSAY INFO: Inhibition of recombinant human TDO2 protein assessed as reduction in N-formylkynurenine formation at 10 uM using L-tryptophan as substrate incubated for 1 hr by methylene blue reagent based assay
ASSAY READOUT: inhibition (%)

Consider the reported inhibition for these compounds:
[[record]]
line_notation = "O/N=C(\\Nc1ccc(F)c(Br)c1)c1ccc(Cl)nc1"
unit_spec = "%"
recorded_value = 32

[[record]]
line_notation = "Cc1ccccc1NC(=O)NCc1ccc(/C(=N/O)Nc2cccc(Br)c2)s1"
unit_spec = "%"
recorded_value = 46

[[record]]
line_notation = "O/N=C(\\Nc1cccc(Br)c1)c1ccc(Cl)nc1"
unit_spec = "%"
recorded_value = 81


A. Cc1ccc(/C(=N/O)Nc2cccc(Br)c2)s1
B. O/N=C(\Nc1ccc(F)c(Cl)c1)c1ccc(Cl)nc1
Identify the entry with the smaller inhibition: A or B . State your choice using its label. B

P. N#Cc1ccc(NC(=O)NCc2csc(/C(=N/O)Nc3cccc(Br)c3)c2)cc1
Q. O/N=C(\Nc1ccc(F)c(Cl)c1)c1ccc(Cl)cn1
Min inhibition? P | Q Select an item and report its label. Q

I. O=C(NCc1ccc(/C(=N/O)Nc2cccc(Br)c2)s1)Nc1ccc(Cl)cc1
II. O/N=C(\Nc1cccc(Br)c1)c1ccc(Cl)s1
Returns: the argument ( I or II ) having the larger inhibition. Mark your answer with the label of the selected entry. II

1. O/N=C(\Nc1ccc(F)c(Cl)c1)c1cnc(Cl)s1
2. O=C(NCc1ccc(/C(=N/O)Nc2cccc(Br)c2)s1)Nc1ccccc1F
Decide: 1 or 2 , by lowest recorded inhibition. Label of pick, please. 2
